test system: CAKI-1 renal; assay: NCI-60 one-dose screen, 48 h; details: 10 µM unless noted
The panel holds about 83,000 compounds, 20% with a hit somewhere; the sample as a whole holds those more often. Active and inactive are the calls of the source. How the source made its calls: active means growth percent below 10; inactive means the rest.
Permitted responses: 1 (yes) for active, 0 (no) for inactive

Would you please look over these solved cases?
{"columns": ["compound", "class"],
 "data": [
  ["C[C@]12C=CC(=O)C=C1CCC1C2[C@@H](O)C[C@@]2(C)C1CC[C@]2(O)C(=O)COC(=O)CCC(=O)O (some centres undefined)", "0 (no)"],
  ["OCCOCCN(Cc1ccccn1)Cc1cc(I)cc(I)c1O", "0 (no)"],
  ["COc1ccc(-c2nc(SCC(C)C)nc(N/N=C\\c3ccc(F)cc3)c2C#N)cc1", "0 (no)"],
  ["Clc1ccc(Nc2nnc(COc3ccccc3)c3ccccc23)cc1", "0 (no)"],
  ["Cc1cc(Cl)ccc1Nc1nc(C(F)(F)F)ccc1C(=O)N/N=C/c1ccc([N+](=O)[O-])cc1", "1 (yes)"],
  ["CCS/C(Nc1ccccc1)=C(\\C#N)C(=O)N/N=C/c1ccc(Cl)cc1Cl", "0 (no)"],
  ["Cn1cc(-c2nonc2-c2c[nH]c3ccc(Br)cc23)c2cc(Br)ccc21", "0 (no)"],
  ["Clc1ccc(CNc2c3ccccc3nc3ccccc23)cc1", "0 (no)"],
  ["COc1cc2c(c(OC)c1OC)CCC(c1cccc(C(=O)Nc3cccc(Br)c3)c1)O2 (centres undefined)", "0 (no)"],
  ["N#Cc1cccc(-c2c(-c3ccc4ccccc4c3)oc3ccccc3c2=O)c1", "0 (no)"]
]}

Input: Per the assay record, what outcome was assigned to Cc1ccc(/C=C2\CN(C(=O)OC(C)(C)C)C/C(=C\c3ccc(C)cc3)C2=O)cc1 ?
Output: 0 (no)

Input: Per the assay record, what outcome was assigned to COc1ccc2[nH]cc(C(c3cc(F)cc(F)c3)c3c[nH]c4ccc(OC)cc34)c2c1 ?
Output: 0 (no)

Input: Per the assay record, what outcome was assigned to O=C(CCC(=O)N/N=C/c1ccccc1O)N/N=C/c1ccccc1O ?
Output: 0 (no)
